Origin of measurements: patent US20070281992A1

# System: Unconfirmed Vancomycin-intermediate Staphylococcus epidermidis Isolates
# EXPERIMENT: MIC assay (NCCLS broth dilution), unconfirmed VISE isolates
# Assay type: cell-based
# EXPERIMENTAL_SETUP: Staphylococcus epidermidis, Unconfirmed VISE isolate 2026, 03MAR06; read-out: Minimal Inhibitory Concentration
Catalogue of molecules with associated MIC
Your answer is read as µg/mL, so omit the unit and give the number.

Example entries begin here.
> print(dat)
                                   molecule  readout.number
1  CN(C)c1ccc(O)c2c1C[C@H]1C[C@H]3[C@H](N(C)C)C(O)=C(C(N)=O)C(=O)[C@@]3(O)C(O)=C1C2=O [MI, minocycline]            0.25
2  CC(=O)NC[C@H]1CN(c2ccc(N3CCOCC3)c(F)c2)C(=O)O1 [LZD, linezolid]               2
3  CN(C)[C@@H]1C(O)=C(C(N)=O)C(=O)[C@@]2(O)C(O)=C3C(=O)c4c(O)cccc4[C@@](C)(O)[C@H]3C[C@@H]12 [TE, tetracycline]               2

// next entry
Exam item: Reported MIC for Cc1onc(-c2ccccc2)c1C(=O)N[C@@H]1C(=O)N2[C@@H]1SC(C)(C)[C@@H]2C(=O)O [OX, oxacillin] : what is it?
Marked response: 32
